Reference source: ChEMBL document CHEMBL1153168

Molecular target: Voltage-dependent T-type calcium channel subunit alpha-1G (Homo sapiens)
Sequence (O43497 whole entry): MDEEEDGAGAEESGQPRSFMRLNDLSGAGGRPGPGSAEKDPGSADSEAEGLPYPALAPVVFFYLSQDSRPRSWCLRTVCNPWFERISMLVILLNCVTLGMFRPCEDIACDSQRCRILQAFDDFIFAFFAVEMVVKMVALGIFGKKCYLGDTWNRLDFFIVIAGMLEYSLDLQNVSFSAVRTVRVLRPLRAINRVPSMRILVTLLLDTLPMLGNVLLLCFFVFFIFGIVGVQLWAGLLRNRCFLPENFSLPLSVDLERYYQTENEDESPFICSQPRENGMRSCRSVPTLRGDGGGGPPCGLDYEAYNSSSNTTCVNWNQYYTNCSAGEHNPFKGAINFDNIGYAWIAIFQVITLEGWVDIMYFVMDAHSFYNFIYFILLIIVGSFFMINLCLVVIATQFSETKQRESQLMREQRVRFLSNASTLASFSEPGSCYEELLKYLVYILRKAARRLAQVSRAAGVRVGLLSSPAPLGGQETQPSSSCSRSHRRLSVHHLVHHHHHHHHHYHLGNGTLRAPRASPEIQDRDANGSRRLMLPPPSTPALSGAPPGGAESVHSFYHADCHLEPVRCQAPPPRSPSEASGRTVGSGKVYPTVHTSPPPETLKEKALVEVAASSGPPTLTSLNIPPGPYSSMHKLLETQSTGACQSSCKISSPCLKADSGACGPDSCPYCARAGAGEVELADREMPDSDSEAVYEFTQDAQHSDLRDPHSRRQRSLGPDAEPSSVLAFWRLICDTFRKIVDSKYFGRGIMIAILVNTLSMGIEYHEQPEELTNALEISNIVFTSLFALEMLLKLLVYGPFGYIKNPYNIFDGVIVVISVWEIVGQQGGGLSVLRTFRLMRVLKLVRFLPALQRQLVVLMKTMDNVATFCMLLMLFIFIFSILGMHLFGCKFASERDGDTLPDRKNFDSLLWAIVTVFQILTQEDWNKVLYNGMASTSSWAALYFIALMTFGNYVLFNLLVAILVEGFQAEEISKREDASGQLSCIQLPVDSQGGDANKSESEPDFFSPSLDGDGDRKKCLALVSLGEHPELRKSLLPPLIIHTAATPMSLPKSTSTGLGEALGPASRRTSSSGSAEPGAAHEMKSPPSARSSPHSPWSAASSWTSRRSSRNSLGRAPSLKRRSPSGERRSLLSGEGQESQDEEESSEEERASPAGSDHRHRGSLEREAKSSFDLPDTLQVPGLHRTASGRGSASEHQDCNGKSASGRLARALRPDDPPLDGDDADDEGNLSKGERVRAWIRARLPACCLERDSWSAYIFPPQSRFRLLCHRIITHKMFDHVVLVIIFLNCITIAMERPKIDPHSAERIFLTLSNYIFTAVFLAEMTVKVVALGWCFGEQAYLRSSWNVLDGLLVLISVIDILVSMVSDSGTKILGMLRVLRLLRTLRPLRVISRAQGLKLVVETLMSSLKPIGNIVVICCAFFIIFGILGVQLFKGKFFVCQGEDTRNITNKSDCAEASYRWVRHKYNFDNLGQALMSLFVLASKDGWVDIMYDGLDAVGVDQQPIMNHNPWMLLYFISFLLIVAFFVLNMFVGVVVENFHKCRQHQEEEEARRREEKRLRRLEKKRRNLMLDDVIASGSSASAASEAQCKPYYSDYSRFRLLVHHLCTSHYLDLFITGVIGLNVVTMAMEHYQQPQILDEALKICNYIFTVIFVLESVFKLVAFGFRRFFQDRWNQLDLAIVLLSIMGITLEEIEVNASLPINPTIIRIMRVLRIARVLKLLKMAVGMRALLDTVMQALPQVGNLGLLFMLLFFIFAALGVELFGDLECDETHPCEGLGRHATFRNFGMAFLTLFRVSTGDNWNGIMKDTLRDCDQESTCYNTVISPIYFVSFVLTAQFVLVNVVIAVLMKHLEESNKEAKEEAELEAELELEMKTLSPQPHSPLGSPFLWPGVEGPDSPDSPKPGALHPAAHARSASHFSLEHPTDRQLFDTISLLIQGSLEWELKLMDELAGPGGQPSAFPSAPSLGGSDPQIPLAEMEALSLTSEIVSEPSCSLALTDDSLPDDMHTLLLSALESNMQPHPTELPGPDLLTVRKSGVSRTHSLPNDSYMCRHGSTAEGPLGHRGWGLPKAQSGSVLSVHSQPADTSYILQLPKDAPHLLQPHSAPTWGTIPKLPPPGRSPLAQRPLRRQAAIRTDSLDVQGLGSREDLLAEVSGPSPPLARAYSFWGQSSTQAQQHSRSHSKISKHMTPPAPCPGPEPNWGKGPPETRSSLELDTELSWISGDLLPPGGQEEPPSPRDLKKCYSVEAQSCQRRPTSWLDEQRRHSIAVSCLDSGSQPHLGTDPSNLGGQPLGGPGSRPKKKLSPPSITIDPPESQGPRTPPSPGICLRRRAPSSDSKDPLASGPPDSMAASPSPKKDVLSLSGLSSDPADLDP
Test: Inhibition of human T-type calcium channel alpha1G in HEK293 cells
pIC50: −log10 of the molar value.
RESULT TYPE: pIC50

# MOLECULE, STUDY SYSTEM, TEST VALUE
rows = [
    ("COC(=O)CC1c2ccccc2N=C(Nc2ccccc2)N1CCCCCN (stereo not drawn)", "Voltage-dependent T-type calcium channel subunit alpha-1G (Homo sapiens)", 5.04),
    ("NCCCCCN1C(Nc2ccccc2)=Nc2ccccc2C1CC(=O)NCc1ccccc1 (stereo not drawn)", "Voltage-dependent T-type calcium channel subunit alpha-1G (Homo sapiens)", 5.34),
    ("Nc1ccc(CNC(=O)CC2c3ccccc3N=C(N3CCCCC3)N2c2ccccc2)cc1 (stereo not drawn)", "Voltage-dependent T-type calcium channel subunit alpha-1G (Homo sapiens)", 4.88),
    ("COC(=O)CC1c2ccccc2N=C(NCCCCCN)N1c1ccccc1 (stereo not drawn)", "Voltage-dependent T-type calcium channel subunit alpha-1G (Homo sapiens)", 5.74),
    ("NCCCCCNC1=Nc2ccccc2C(CC(=O)NCc2ccccc2)N1c1ccccc1 (stereo not drawn)", "Voltage-dependent T-type calcium channel subunit alpha-1G (Homo sapiens)", 5.50),
    ("CC(C)(C)OC(=O)NCCCCCN1C(Nc2ccccc2)=Nc2ccccc2C1CC(=O)NCc1ccccc1 (stereo not drawn)", "Voltage-dependent T-type calcium channel subunit alpha-1G (Homo sapiens)", 5.92),
]

A: CCN1C(N(C)C)=Nc2ccccc2C1CC(=O)NCc1ccc([N+](=O)[O-])cc1 (stereo not drawn)
B: CN(C)C1=Nc2ccccc2C(CC(=O)NCc2ccc(NS(=O)(=O)c3ccc(F)cc3)cc2)N1c1ccccc1 (stereo not drawn)
C: CCN1C(N2CCCCC2)=Nc2ccccc2C1CC(=O)NCc1ccc([N+](=O)[O-])cc1 (stereo not drawn)
D: CCN1C(N2CCCCC2)=Nc2ccccc2C1CC(=O)NCc1ccccc1 (stereo not drawn)
Sort the molecules on pIC50; start with the lowest figure. Put the labels in the requested order and list them out.
D, A, C, B

A: O=C(CC1c2ccccc2N=C(N2CCCCC2)N1c1ccccc1)NCc1ccc([N+](=O)[O-])cc1 (stereo not drawn)
B: O=C(CC1c2ccccc2N=C(N2CCCCC2)N1c1ccccc1)NS(=O)(=O)c1cccs1 (stereo not drawn)
Please indicate which has the smaller reported pIC50: A , or B . Your answer should be the label of the entry you select.
A

---

Target: Voltage-dependent T-type calcium channel subunit alpha-1G (Homo sapiens)
Assay: Inhibition of human T-type calcium channel alpha1G in HEK293 cells
pIC50: −log10 of the molar value.
RESULT TYPE: pIC50

Solved cases (3 shown):
# MOLECULE, pIC50
rows = [
    ("COC(=O)CC1c2ccccc2N=C(Nc2ccccc2)N1CCCCCNC(=O)OC(C)(C)C (stereo not given)", 5.64),
    ("CCN1C(N(C)C)=Nc2ccccc2C1CC(=O)NCc1ccccc1 (stereo not given)", 4.62),
    ("COC(=O)CC1c2ccccc2N=C(NCCCCCNC(=O)OC(C)(C)C)N1c1ccccc1 (stereo not given)", 5.70),
]

I: CCN1C(N(C)C)=Nc2ccccc2C1CC(=O)NCc1ccc(NS(=O)(=O)c2ccc(F)cc2)cc1 (stereo not given)
II: CCN1C(N(C)C)=Nc2cc(N)ccc2C1CC(=O)NCc1ccc(N)cc1 (stereo not given)
Returns the identifier with the smallest measured pIC50 among I and II . Pick one and reply with its label.
II
(II: 4.90, I: 5.39)
